# Test system: LN-18 (Glioblastoma);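 further: after 72 h of two-drug dosing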
# assay-overview: Bliss excess, mean over the matrix (fraction); higher = more synergy
Here, each record is paired with measured Bliss excess data.

In the examples that follow, each entry is paired with its recorded Bliss excess.
CCN(CCO)CCCOc1ccc2c(Nc3cc(CC(=O)Nc4cccc(F)c4)[nH]n3)ncnc2c1 [AZD2811] + C=CCn1c(=O)c2cnc(Nc3ccc(N4CCN(C)CC4)cc3)nc2n1-c1cccc(C(C)(C)O)n1 [AZD1775] (first compound max 1 µM, partner max 1 µM)
0.0214
CC1(C)CCC(CN2CCN(c3ccc(C(=O)NS(=O)(=O)c4ccc(NCC5CCOCC5)c([N+](=O)[O-])c4)c(Oc4cnc5[nH]ccc5c4)c3)CC2)=C(c2ccc(Cl)cc2)C1 [Venetoclax] + CCN(CCO)CCCOc1ccc2c(Nc3cc(CC(=O)Nc4cccc(F)c4)[nH]n3)ncnc2c1 [AZD2811] (first compound max 1 µM, 7x7, partner max 1 µM)
-0.0146

Please look at the following compound next.
// query For the compound shown here, CC1(C)CCC(CN2CCN(c3ccc(C(=O)NS(=O)(=O)c4ccc(NCC5CCOCC5)c([N+](=O)[O-])c4)c(Oc4cnc5[nH]ccc5c4)c3)CC2)=C(c2ccc(Cl)cc2)C1 [Venetoclax] + Cn1cnc2c(F)c(Nc3ccc(Br)cc3Cl)c(C(=O)NOCCO)cc21 [Selumetinib] (first compound max 1 µM, 7x7, partner max 3 µM) , give the reported Bliss excess.
// result -0.0088
